Here's a batch of compounds along with measured IC50 for Sodium-dependent dopamine transporter (Rattus norvegicus, UniProt P23977).
# output: bare number, implied unit nM

Consider the worked cases shown below.
                                   compound  measurement_unit  quantitative_result
0  CN1C2CCC1C(c1nc(-c3ccccc3)no1)C(c1ccc(Cl)cc1)C2 (centres undefined)                nM                 1.62
1  CN1C2CCC1C(c1nnc(-c3ccccc3)o1)C(c1ccc(Cl)cc1)C2 (centres undefined)                nM                 12.6
2  CN1C2CCC1C(c1ncc(-c3ccccc3)o1)C(c1ccc(Cl)cc1)C2 (centres undefined)                nM                 19.7

*Q* Would you mind telling me what IC50 value was observed for CN1C2CC[C@@H]1C[C@H](c1ccc(Cl)cc1)C2c1cc(-c2ccccc2)no1 (some centres undefined) ?
*A* 1.28

###

- test.system: Monoamine transporters; serotonin & dopamine (Homo sapiens) (UniProt P31645+Q01959)
- Sequence (P31645 whole entry, looked up): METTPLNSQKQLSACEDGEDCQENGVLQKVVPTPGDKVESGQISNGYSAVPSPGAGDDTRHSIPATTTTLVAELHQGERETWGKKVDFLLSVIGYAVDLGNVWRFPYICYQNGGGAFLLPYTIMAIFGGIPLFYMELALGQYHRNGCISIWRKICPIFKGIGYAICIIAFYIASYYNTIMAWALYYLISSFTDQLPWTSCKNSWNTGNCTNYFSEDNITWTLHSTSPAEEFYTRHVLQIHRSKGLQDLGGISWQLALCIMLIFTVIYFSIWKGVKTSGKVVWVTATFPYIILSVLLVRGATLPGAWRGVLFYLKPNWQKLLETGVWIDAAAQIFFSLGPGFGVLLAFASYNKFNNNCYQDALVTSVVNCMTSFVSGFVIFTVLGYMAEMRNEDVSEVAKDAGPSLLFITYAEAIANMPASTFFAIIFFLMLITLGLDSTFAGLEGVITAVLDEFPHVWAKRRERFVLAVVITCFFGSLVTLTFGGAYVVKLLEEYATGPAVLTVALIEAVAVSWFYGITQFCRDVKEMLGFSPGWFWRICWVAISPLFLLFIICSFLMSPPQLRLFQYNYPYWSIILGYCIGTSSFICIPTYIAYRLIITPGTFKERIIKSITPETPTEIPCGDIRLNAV
- Sequence (Q01959 whole entry, looked up): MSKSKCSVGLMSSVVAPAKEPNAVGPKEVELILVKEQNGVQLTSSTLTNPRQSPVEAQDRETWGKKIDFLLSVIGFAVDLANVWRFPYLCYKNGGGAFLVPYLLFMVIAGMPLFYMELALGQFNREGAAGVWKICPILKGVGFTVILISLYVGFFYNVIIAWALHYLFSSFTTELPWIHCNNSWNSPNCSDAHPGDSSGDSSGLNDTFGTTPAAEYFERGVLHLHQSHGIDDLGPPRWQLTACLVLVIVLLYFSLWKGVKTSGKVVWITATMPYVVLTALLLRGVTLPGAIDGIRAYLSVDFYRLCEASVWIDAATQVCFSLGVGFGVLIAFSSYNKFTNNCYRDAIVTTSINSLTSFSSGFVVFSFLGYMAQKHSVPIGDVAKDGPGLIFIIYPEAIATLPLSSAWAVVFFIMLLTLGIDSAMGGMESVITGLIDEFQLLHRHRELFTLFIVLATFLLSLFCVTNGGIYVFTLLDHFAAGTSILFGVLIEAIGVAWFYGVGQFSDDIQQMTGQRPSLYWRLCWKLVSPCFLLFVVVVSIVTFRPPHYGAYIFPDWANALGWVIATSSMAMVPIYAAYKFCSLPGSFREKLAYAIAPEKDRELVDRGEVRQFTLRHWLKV
- measurement.notes: Ratio of IC50 of 5-hydroxy tryptamine to dopamine
- Format: protein assay
Ratio below 100 gives no; Ratio at or above it gives yes.

*Q* Tell me whether Ratio is at least 100 here: CN1C2CC[C@@H]1C[C@H](c1ccc(Cl)cc1)C2c1cc(-c2ccccc2)no1 (stereo not given in full)
*A* yes

*Q* Tell me whether Ratio is at least 100 here: CN1C2CCC1C(c1nc(-c3ccccc3)no1)C(c1ccc(Cl)cc1)C2 (stereo not given)
*A* yes

*Q* Tell me whether Ratio is at least 100 here: CN1C2CCC1C(c1nnc(-c3ccccc3)o1)C(c1ccc(Cl)cc1)C2 (stereo not given)
*A* yes

*Q* Tell me whether Ratio is at least 100 here: CN1C2CCC1C(C(=O)Oc1ccccc1)C(c1ccc(Cl)cc1)C2 (stereo not given)
*A* yes

*Q* Tell me whether Ratio is at least 100 here: CN1C2CCC1C(c1ncc(-c3ccccc3)o1)C(c1ccc(Cl)cc1)C2 (stereo not given)
*A* no

###

- measurement.notes: Ratio of IC50 of norepinephrine to dopamine
Known Ratio of a selection of molecules
// return just the number, without any unit appended

                                   molecule  quantitative_result
0  CN1C2CCC1C(C(=O)Oc1ccccc1)C(c1ccc(Cl)cc1)C2 (stereo not given)                 1490
1  CN1C2CCC1C(c1nc(-c3ccccc3)no1)C(c1ccc(Cl)cc1)C2 (stereo not given)                  151
2  CN1C2CC[C@@H]1C[C@H](c1ccc(Cl)cc1)C2c1cc(-c2ccccc2)no1 (stereo not given in full)                  394
3  CN1C2CCC1C(c1ncc(-c3ccccc3)o1)C(c1ccc(Cl)cc1)C2 (stereo not given)                   25

The record that follows has no Ratio shown yet.
*Q* Would you mind telling me what Ratio value was observed for CN1C2CCC1C(c1nnc(-c3ccccc3)o1)C(c1ccc(Cl)cc1)C2 (stereo not given) ?
*A* 74

###

- test.system: Sodium-dependent serotonin transporter (Rattus norvegicus)
- Sequence (P31652 whole entry): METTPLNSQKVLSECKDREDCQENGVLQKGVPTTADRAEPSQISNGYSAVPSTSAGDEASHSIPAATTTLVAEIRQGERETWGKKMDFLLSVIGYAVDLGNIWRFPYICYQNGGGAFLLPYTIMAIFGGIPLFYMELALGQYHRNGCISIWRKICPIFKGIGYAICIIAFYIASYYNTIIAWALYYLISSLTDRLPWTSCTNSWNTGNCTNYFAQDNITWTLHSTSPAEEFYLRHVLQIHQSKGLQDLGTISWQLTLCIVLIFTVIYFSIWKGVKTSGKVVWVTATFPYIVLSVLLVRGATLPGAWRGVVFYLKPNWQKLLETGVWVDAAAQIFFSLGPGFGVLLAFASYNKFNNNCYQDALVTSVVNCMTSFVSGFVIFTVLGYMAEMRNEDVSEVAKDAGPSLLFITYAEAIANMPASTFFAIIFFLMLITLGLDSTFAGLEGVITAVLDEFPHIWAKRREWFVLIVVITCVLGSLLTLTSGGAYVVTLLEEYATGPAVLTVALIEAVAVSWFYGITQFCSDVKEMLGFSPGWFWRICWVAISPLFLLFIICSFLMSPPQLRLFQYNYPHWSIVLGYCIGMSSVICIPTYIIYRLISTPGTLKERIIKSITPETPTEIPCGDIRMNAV
quantity.kind: IC50
Respond with a number, then the unit of measure.

*Q* Missing value: IC50, Sodium-dependent serotonin transporter (Rattus norvegicus), entry CN1C2CC[C@@H]1C[C@H](c1ccc(Cl)cc1)C2c1cc(-c2ccccc2)no1 (stereo partly specified) . Fill in?
*A* 2420 nM
